# Test system: Danio rerio larvae (5 dpf)
# experimentalDetails: startle (activity period 16 minus period 15, 20-s interval sound) minus DMSO control (percentage points); higher = stronger startle response than DMSO larvae
# protocolConditions: 10 µM; exposure time: 3 h pre-incubation + 3 h imaging
Structures can show the parent of a compound that is named as a salt.
So I've got a bunch of compounds here, and I need their startle values.
Give the figure by itself; no unit, no explanation.

Request the reported startle associated with CN[C@H]1CC[C@@H](c2ccc(Cl)c(Cl)c2)c2ccccc21 [Sertraline hydrochloride]
2.62

Try `COc1ccccc1Oc1c(NS(=O)(=O)c2ccc(C(C)(C)C)cc2)nc(-c2ncccn2)nc1OCCO` next.
7.41

Try CC(C)COCC(CN(Cc1ccccc1)c1ccccc1)N1CCCC1 (configuration not stated) [Bepridil hydrochloride] next.
-3.27

Try `O=C1CCc2ccc(OCCCCN3CCN(c4cccc(Cl)c4Cl)CC3)cc2N1` next.
-3.31

Try NC(=O)OCC(COC(N)=O)c1ccccc1 [Felbamate] next.
1.44

Try `Cc1cc2c(s1)Nc1ccccc1N=C2N1CCN(C)CC1` next.
2.27

Try `CCc1nc(N)nc(N)c1-c1ccc(Cl)cc1` next.
1.66

Try N#Cc1ccc2[nH]cc(CCCCN3CCN(c4ccc5oc(C(N)=O)cc5c4)CC3)c2c1 [Vilazodone hydrochloride] next.
-7.54

Try CNS(=O)(=O)Cc1ccc2[nH]cc(CCN(C)C)c2c1 [Sumatriptan succinate] next.
2.1

Try CCCCCCCN(CC)CCCC(O)c1ccc(NS(C)(=O)=O)cc1 (configuration not stated) [Ibutilide hemifumarate] next.
-4.59

Try CC(=O)Oc1cc2c(s1)CCN(C(C(=O)C1CC1)c1ccccc1F)C2 (configuration not stated) next.
-11.4

Try C[C@H]1O[C@H](O[C@H]2[C@H](O)[C@@H](O)[C@@H](O[C@H]3[C@H](O)[C@@H](O)C(O)O[C@@H]3CO)O[C@@H]2CO)[C@H](O)[C@@H](O)[C@@H]1N[C@H]1C=C(CO)[C@@H](O)[C@H](O)[C@H]1O (some centres not stated) next.
-7.07

----------
# Test system: Danio rerio larvae (5 dpf)
# experimentalDetails: startle (activity period 16 minus period 15, 20-s interval sound) minus DMSO control (percentage points); higher = stronger startle response than DMSO larvae
# protocolConditions: 10 µM; exposure time: 3 h pre-incubation + 3 h imaging
Structures can show the parent of a compound that is named as a salt.
condition met means recorded startle is 0.2 or above; condition not met means it is below 0.2.

Kindly determine if startle recorded for `CC[C@H](C)C(=O)O[C@H]1C[C@@H](C)C=C2C=C[C@H](C)[C@H](CC[C@@H]3C[C@@H](O)CC(=O)O3)[C@H]21` is above or exactly 0.2.
condition not met

Try `Cc1cc(C2CCCCC2)n(O)c(=O)c1` next.
condition not met

Try C[C@]12CC[C@@H]3c4ccc(O)cc4C[C@@H](CCCCCCCCC[S+]([O-])CCCC(F)(F)C(F)(F)F)[C@H]3[C@@H]1CC[C@@H]2O (stereo partly specified) next.
condition not met

Try `CC(=O)NC[C@H]1CN(c2ccc(N3CCOCC3)c(F)c2)C(=O)O1` next.
condition met

Try CN(C)CCc1c[nH]c2ccc(Cn3cncn3)cc12 [Rizatriptan benzoate] next.
condition met

Try `CCCCC1=NC2(CCCC2)C(=O)N1Cc1ccc(-c2ccccc2-c2nnn[nH]2)cc1` next.
condition met

Try `CCCCC(=O)N(Cc1ccc(-c2ccccc2-c2nnn[nH]2)cc1)[C@H](C(=O)O)C(C)C` next.
condition met

Try `CNC(=O)c1ccccc1Sc1ccc2c(/C=C/c3ccccn3)n[nH]c2c1` next.
condition not met

Try `CCOc1nc2cccc(C(=O)O)c2n1Cc1ccc(-c2ccccc2-c2nnn[nH]2)cc1` next.
condition met

Try `CC(=O)O[C@H]1C(=O)[C@@]2(C)[C@H]([C@H](OC(=O)c3ccccc3)[C@]3(O)C[C@H](OC(=O)[C@H](O)[C@@H](NC(=O)c4ccccc4)c4ccccc4)C(C)=C1C3(C)C)[C@]1(OC(C)=O)CO[C@@H]1C[C@@H]2O` next.
condition met

Try `Cc1cn([C@H]2C=C[C@@H](CO)O2)c(=O)[nH]c1=O` next.
condition met

Try CN1CCC[C@@H]1Cc1c[nH]c2ccc(CCS(=O)(=O)c3ccccc3)cc12 [Eletriptan hydrobromide] next.
condition met

Try `COc1cc(Nc2c(C#N)cnc3cc(OCCCN4CCN(C)CC4)c(OC)cc23)c(Cl)cc1Cl` next.
condition not met

Try `O=C(O)c1cc(/N=N/c2ccc(S(=O)(=O)Nc3ccccn3)cc2)ccc1O` next.
condition not met

Try `Clc1ccccc1C(c1ccccc1)(c1ccccc1)n1ccnc1` next.
condition met

Try NS(=O)(=O)c1cc(C(=O)O)c(NCc2ccco2)cc1Cl [Furosemide] next.
condition not met

----------
# Test system: Danio rerio larvae (5 dpf)
# experimentalDetails: habituation (activity change first vs second 5 min of 1-s interval sound, period 17) minus DMSO control (percentage points); higher = larger habituation measure than DMSO larvae
# protocolConditions: 10 µM; exposure time: 3 h pre-incubation + 3 h imaging
Counter-ions that a name gives are not always drawn.
experimentalEndpoint: habituation
Give the figure by itself; no unit, no explanation.

Request the reported habituation associated with COc1cc(N)c(Cl)cc1C(=O)NC1CCN(CCCOc2ccc(F)cc2)CC1OC (stereo unspecified) [Cisapride]
4.4

Try `CC[C@H]1OC(=O)[C@H](C)[C@@H](O[C@H]2C[C@@](C)(OC)[C@@H](O)[C@H](C)O2)[C@H](C)[C@@H](O[C@@H]2O[C@H](C)C[C@H](N(C)C)[C@H]2O)[C@](C)(O)C[C@@H](C)CN(C)[C@H](C)[C@@H](O)[C@]1(C)O` next.
3.26

Try OCc1cc(C(O)CNCCCCCCOCCCCc2ccccc2)ccc1O (stereo unspecified) [Salmeterol xinafoate] next.
-0.659

Try COc1cc([C@@H]2c3cc4c(cc3[C@@H](O[C@@H]3O[C@@H]5CO[C@@H](C)O[C@H]5[C@H](O)[C@H]3O)[C@H]3COC(=O)[C@H]23)OCO4)cc(OC)c1O [Etoposide] next.
1.7

Try N#C[C@@H]1C[C@@H]2C[C@@H]2N1C(=O)[C@@H](N)C12CC3CC(CC(O)(C3)C1)C2 [Saxagliptin hydrochloride] next.
2.76

Try `O=C(O)C[C@H](O)C[C@H](O)/C=C/c1c(C2CC2)nc2ccccc2c1-c1ccc(F)cc1` next.
-5.34

----------
# System: Danio rerio larvae (5 dpf)
# experimentalDetails: 1-h baseline activity (% time moving, periods 1-6) minus DMSO control (percentage points); higher = more locomotor activity than DMSO larvae
# protocolConditions: 10 µM; exposure time: 3 h pre-incubation + 3 h imaging
Structures can show the parent of a compound that is named as a salt.
true means recorded 1-h baseline activity is 6 or above; false means it is below 6.

Kindly determine if 1-h baseline activity recorded for CCCC1O[C@@H]2C[C@H]3[C@@H]4CCC5=CC(=O)C=C[C@]5(C)[C@H]4[C@@H](O)C[C@]3(C)[C@]2(C(=O)CO)O1 (some centres not stated) [Budesonide] is above or exactly 6.
false

Try CC[C@H]1OC(=O)[C@H](C)[C@@H](O[C@H]2C[C@@](C)(OC)[C@@H](O)[C@H](C)O2)[C@H](C)[C@@H](O[C@@H]2O[C@H](C)C[C@H](N(C)C)[C@H]2O)[C@](C)(O)C[C@@H](C)CN(C)[C@H](C)[C@@H](O)[C@]1(C)O [Azithromycin] next.
false

Try CNS(=O)(=O)Cc1ccc2[nH]cc(CCN(C)C)c2c1 [Sumatriptan succinate] next.
true

Try CC(C)COCC(CN(Cc1ccccc1)c1ccccc1)N1CCCC1 (configuration not stated) [Bepridil hydrochloride] next.
false

Try Clc1ccc2nsnc2c1NC1=NCCN1 [Tizanidine hydrochloride] next.
false

Try C[C@H]1O[C@H](O[C@H]2[C@H](O)[C@@H](O)[C@@H](O[C@H]3[C@H](O)[C@@H](O)C(O)O[C@@H]3CO)O[C@@H]2CO)[C@H](O)[C@@H](O)[C@@H]1N[C@H]1C=C(CO)[C@@H](O)[C@H](O)[C@H]1O (some centres not stated) [Acarbose] next.
false

Try CCCc1nn(C)c2c(=O)[nH]c(-c3cc(S(=O)(=O)N4CCN(C)CC4)ccc3OCC)nc12 [Sildenafil citrate] next.
false

Try COc1ccccc1Oc1c(NS(=O)(=O)c2ccc(C(C)(C)C)cc2)nc(-c2ncccn2)nc1OCCO [Bosentan] next.
false

Try CNC(=O)c1cc(Oc2ccc(NC(=O)Nc3ccc(Cl)c(C(F)(F)F)c3)cc2)ccn1 [Sorafenib] next.
false

Try OCc1cc(C(O)CNCCCCCCOCCCCc2ccccc2)ccc1O (configuration not stated) [Salmeterol xinafoate] next.
true

Try CC(=O)Nc1ccc(O)cc1 [Acetaminophen] next.
true

Try CN(C)CCc1c[nH]c2ccc(C[C@H]3COC(=O)N3)cc12 [Zolmitriptan] next.
true

Try CC(C)OC(=O)C(C)(C)Oc1ccc(C(=O)c2ccc(Cl)cc2)cc1 [Fenofibrate] next.
true

Try CNCc1ccc(-c2[nH]c3cc(F)cc4c3c2CCNC4=O)cc1 [Rucaparib camsylate] next.
false

Try COc1cc([C@@H]2c3cc4c(cc3[C@@H](O[C@@H]3O[C@@H]5CO[C@@H](C)O[C@H]5[C@H](O)[C@H]3O)[C@H]3COC(=O)[C@H]23)OCO4)cc(OC)c1O [Etoposide] next.
false

Try `COc1cc2nccc(Oc3ccc(NC(=O)C4(C(=O)Nc5ccc(F)cc5)CC4)cc3)c2cc1OC` next.
true
